- Test system: ATF4
- protocol.details: HEK-ATF4 High Content Imaging assay (prevention of Tunicamycin induced ISR)
- Format: cell-based
- reported.conditions: Homo sapiens, wild-type HEK293 cells, 6 hrs incubation, ATF4 signal ratio nucleus/cytoplasm, read-out: Activity (IC50, HEK-ATF4 readout)
- Protocol: Example compounds were tested in the HEK-ATF4 High Content Imaging assay to assess their pharmacological potency to prevent Tunicamycin induced ISR. […] Finally, images were analyzed using script based algorithms. The main readout HEK-ATF4 monitored the ATF4 signal ratio between nucleus and cytoplasm. […] In addition, HEK-CellCount readout was derived from counting the number of stained nuclei corresponding to healthy cells. This readout served as an internal toxicity control.
pIC50: −log10 of the molar value.
Recorded pIC50 values for a group of molecules are listed next.

Tell me pIC50 reported for O=C(COc1ccc(Cl)c(F)c1)N[C@H]1CO[C@H](c2nnc(N3CC(OC(F)(F)F)C3)o2)OC1 [Example 7] 6.30 to 9.00

Tell me pIC50 reported for O=C(COc1ccc(Cl)c(F)c1)N[C@H]1CO[C@H](c2nnc(OCCCC(F)(F)F)o2)OC1 [Example 5] 6.30 to 9.00

Tell me pIC50 reported for O=C(COc1ccc(Cl)c(F)c1)N[C@H]1CO[C@H](c2nnc(OCCOC(F)(F)F)o2)OC1 [Example 6] 6.30 to 9.00

Tell me pIC50 reported for O=C(COc1ccc(Cl)c(F)c1)N[C@H]1CO[C@H](c2nnc([C@H]3C[C@@H](OC(F)(F)F)C3)o2)OC1 [Example 2] 6.30 to 9.00

* * *

- System: ATF4
- protocol.details: HEK-ATF4 High Content Imaging assay (prevention of Tunicamycin induced ISR)
- Type: cell-based
- reported.conditions: Homo sapiens, wild-type HEK293 cells, 6 hrs incubation, ATF4 signal ratio nucleus/cytoplasm, read-out: Activity (IC50, HEK-ATF4 readout)
metric.name: IC50

structure.smiles	IC50
O=C(COc1ccc(Cl)c(Cl)c1)N[C@H]1CO[C@H](c2nnc(OCCOC(F)(F)F)o2)OC1	1 to 500 nM
O=C(COc1ccc(Cl)c(F)c1)N[C@H]1CO[C@H](c2cn(-c3ccc(Cl)cc3)nn2)OC1	500 to 2000 nM
O=C(COc1cnc(Cl)c(F)c1)N[C@H]1CO[C@H](c2nnc([C@H]3C[C@@H](OC(F)(F)F)C3)o2)OC1	2000 to 15000 nM
O=C(COc1ccc(Cl)c(F)c1)N[C@H]1CO[C@H](c2nnc(-c3ccc(Cl)cc3)o2)OC1	1 to 500 nM
O=C(COc1ccc(Cl)c(F)c1)N[C@H]1CO[C@@H](c2cn(-c3ccc(Cl)cc3)nn2)OC1	2000 to 15000 nM

Next up:
Tell me IC50 reported for "O=C(COc1ccc(C(F)F)c(Cl)c1)N[C@H]1CO[C@H](c2nnc(N3CC(OC(F)(F)F)C3)o2)OC1" 1 to 500 nM
